assay: Study #1 Phase 1: plasma and urine pharmacokinetics of Compound 1 and Compound 1A after IV infusion of Compound 1 (SAD, MAD, loading regimen); conditions: both, human, plasma, 50 mg, Cmax, Cohort 7: Compound 1 50 mg/3 hr IV QD × 14 days, Day 14, geometric mean
measurement-kind: Cmax (µg/mL)
Respond numerically; units are µg/mL and should not be typed.

Supply measured Cmax of Nc1ncccc1-c1cc(Cc2ccc(COc3ccccn3)cc2)no1 in your reply. 1.18

====

assay: Study #1 Phase 1: plasma and urine pharmacokinetics of Compound 1 and Compound 1A after IV infusion of Compound 1 (SAD, MAD, loading regimen); settings: both, human, plasma, 600 mg, Tmax, Cohort 10: Compound 1 600 mg/3 hr IV QD × 14 days, Day 1, median
measurement-kind: Tmax (h)
Respond numerically; units are h and should not be typed.

Supply measured Tmax of Nc1ncccc1-c1cc(Cc2ccc(COc3ccccn3)cc2)no1 in your reply. 3
